# System: PC-3 prostate
# Assay details: NCI tumour cell line growth inhibition, 48 h
For each record, write down the corresponding TGI.

See these solved cases before continuing.
>  <Molecule>
CN(C)Cc1c[nH]c2c1C(=O)c1c(c(O)c3ccccc3c1O)C2=O

>  <TGI>
22.2 µM

$$$$
>  <Molecule>
C[C@]12CCC(=O)C=C1CC[C@@H]1C2CC[C@]2(C)c3nn(-c4ccc(F)cc4)nc3CC12 (some centres not stated)

>  <TGI>
> 100 µM

$$$$
>  <Molecule>
CCCS(=O)(=O)Nc1ccc(Nc2c3ccccc3nc3ccccc23)c(OC)c1

>  <TGI>
17.6 µM

$$$$
>  <Molecule>
COC(COC(=O)N1CCN(C=O)CC1)C1=C(N2CC2)C(=O)C(C)=C(N2CC2)C1=O (configuration not stated)

>  <TGI>
3.24 µM

$$$$
>  <Molecule>
COC1=C(Br)[C@H](O)[C@@]2(C=C1Br)CC(C(=O)NCCCCCN=C(N)N)=NO2

>  <TGI>
> 10 µM

$$$$

Need TGI for each of these molecules.
1. CCOC(=O)C1=C(C)N(N)C(=S)NC1c1ccc(C)cc1 (configuration not stated)
2. COc1ccc(-n2cc(-c3ccc(Cl)c(Cl)c3)nc2SCc2cccc(C#N)c2)cc1
3. CN(C)c1ccc2nc3ccc(=O)cc-3sc2c1

1: > 100 µM; 2: > 100 µM; 3: > 100 µM

Origin of the recorded values: PubChem BioAssay (NCI)
